B1: Cold shock protein CspB, residues 1 to 66; numbered along this chain, P41016 (parent)
chain: MQRGKVKWFNNEKGYGFIEVEGGSDVFVHFTAIQGEGFKTLEEGQEVSFEIVQGNRGPQAANVVKL

Variants of: B1
Experiment: abundance fitness (aPCA) (normalised: wild type 0, dead -1); higher = more abundant; growth selection in yeast, the domain comes from the species named
Conditions: Bacillus caldolyticus
Classification field: enter criterion met for abundance fitness values not below -0.1, criterion not met for values below it.

>>> group("L41I")
"criterion met"
>>> group("Q45M")
"criterion met"
>>> group("N11C")
"criterion met"
>>> group("Q34V")
"criterion met"

[Q] Hi team, for I18M , is the recorded abundance fitness at or above -0.1?
[A] criterion not met

[Q] Hi team, for Q34N , is the recorded abundance fitness at or above -0.1?
[A] criterion met

[Q] Hi team, for G35E , is the recorded abundance fitness at or above -0.1?
[A] criterion met

[Q] Hi team, for K7Y , is the recorded abundance fitness at or above -0.1?
[A] criterion not met

[Q] Hi team, for G14M , is the recorded abundance fitness at or above -0.1?
[A] criterion not met
